Tested on: UO-31 renal
Assay overview: NCI tumour cell line growth inhibition, 48 h
I'd be grateful if you could share measured log10 of TGI for these entries.
Response schema: value (number) is log10 of TGI in units of µM.

Known results for molecules:
N=c1oc2ccc3ccccc3c2cc1-c1nc2ccccc2c(=O)[nH]1	1.52
O=C(CC(C(=O)c1ccsc1)c1cccs1)c1ccccc1 (stereo not drawn)	1.88
Cc1cn2c(/C=N/N=C(N)N)c(-c3cc([N+](=O)[O-])c(Cl)cc3Cl)nc2s1	0.57
O=[N+]([O-])c1ccccc1/C=N\NC(=S)N/N=C/c1ccccc1[N+](=O)[O-]	1.94
CCN(Cc1cc(Cl)cc(C)c1O)Cc1c(O)ccc2ccccc12	1.48
CN1CCN(C2=C(Cl)C(=O)c3ccccc3C2=O)CC1	0.42

Okay, now this molecule:
Prompt: In one line, give reported log10 of TGI of the entry Nc1cc(CO)cc(Nc2c3ccccc3nc3ccccc23)c1 .
Completion: 1.51
